I'd be grateful if you could share measured EC50 for these entries.
Tested on: Human betaherpesvirus 5
ASSAY NOTES: Antiviral activity against Human cytomegalovirus AD169 in HFF by cytopathic effect (CPE) inhibition assay
TEST CONTEXT: Human betaherpesvirus 5, AD169

Example entries begin here.
- MOLECULE: "Nc1nc2c(ncn2/C=C2/CC23CCP(=O)(O)OC3)c(=O)[nH]1 (stereo not drawn)"
  EC50: "11.6 µM"
- MOLECULE: "Nc1nc2c(ncn2/C=C2/CC2(CO)CCP(=O)(O)O)c(=O)[nH]1 (stereo not drawn)"
  EC50: "2.7 µM"

Continue with the next molecule.
Specify measured EC50 for Nc1nc2c(ncn2/C=C2\CC23CCP(=O)(O)OC3)c(=O)[nH]1 (stereo not drawn) .
> 300 µM
